Test system: DU145
EXPERIMENTAL PROTOCOL: Euclidean distance of Cell Painting phenotypic profile (signed KS, 77 features) to DMSO centroid (dimensionless distance); 5 or 10 uM (library dependent); higher = stronger phenotypic change vs DMSO (phenoactivity)
ASSAY SETUP: 48 h
Structures can show the parent of a compound that is named as a salt.
VALUE KIND: Euclidean distance
Respond numerically, and do not add a unit to the figure.

Q) For the compound O=C(O)CSCC(=O)NC1CCSC1=O (configuration not stated) , report Euclidean distance.
A) 1.06

Q) For the compound CC[N+](CC)(CC)CC [Tetraethylammonium bromide] , report Euclidean distance.
A) 0.857

Q) For the compound CCOC(=O)C1=C(COCCN)NC(C)=C(C(=O)OC)[C@@H]1c1ccccc1Cl , report Euclidean distance.
A) 0.684

Q) For the compound O=C(O)[C@H](O)Cc1ccc(O)c(O)c1 , report Euclidean distance.
A) 0.736

Q) For the compound O=C(O)C1=CO[C@@H](O[C@@H]2O[C@H](CO)[C@@H](O)[C@H](O)[C@H]2O)[C@@H]2C(CO)=CC[C@H]12 , report Euclidean distance.
A) 0.684

Q) For the compound CN1CC2c3ccccc3Oc3ccc(Cl)cc3C2C1 (configuration not stated) [Asenapine maleate] , report Euclidean distance.
A) 2.6

Q) For the compound Cc1cccc(Nc2ccccc2C(=O)O)c1C , report Euclidean distance.
A) 0.8

Q) For the compound CNNCc1ccc(C(=O)NC(C)C)cc1 [Procarbazine HCl] , report Euclidean distance.
A) 1.23

Q) For the compound COc1c(-c2ccc3cc(NS(C)(=O)=O)ccc3c2)cc(-n2ccc(=O)[nH]c2=O)cc1C(C)(C)C , report Euclidean distance.
A) 1.27

Q) For the compound C[N+](C)(C)CCO.O=C([O-])C(O)C(O)C(=O)O (configuration not stated) [Choline bitartrate] , report Euclidean distance.
A) 0.973

Q) For the compound CCCCC(C)(O)C/C=C/[C@H]1[C@H](O)CC(=O)[C@@H]1CCCCCCC(=O)OC (mixture of isomers) , report Euclidean distance.
A) 1.06

Q) For the compound CC(C)C[C@H](NC(=O)CNC(=O)c1cc(Cl)ccc1Cl)B1OC(=O)C(CC(=O)O)(CC(=O)O)O1 , report Euclidean distance.
A) 5.36

Q) For the compound OC(CNCC(O)C1CCc2cc(F)ccc2O1)C1CCc2cc(F)ccc2O1 (configuration not stated) , report Euclidean distance.
A) 0.832

Q) For the compound Fc1cc(-c2cccc3ncc(-c4cnn(C5CCNCC5)c4)nc23)cc(F)c1CN1CCOCC1 , report Euclidean distance.
A) 2.11

Q) For the compound NC(=O)c1ccc(OCCCN2CC3CCCC3C2)cc1 (configuration not stated) , report Euclidean distance.
A) 1.39

Q) For the compound Cc1ncc(-c2ccnc(Nc3ccc(S(C)(=O)=O)cc3)n2)n1C(C)C , report Euclidean distance.
A) 3.05

Q) For the compound O=C(O)/C=C/c1cnc[nH]1 , report Euclidean distance.
A) 0.798

Q) For the compound Brc1c(NC2=NCCN2)ccc2nccnc12 [Brimonidine Tartrate] , report Euclidean distance.
A) 0.478

Q) For the compound [O-][n+]1cccc(-c2nc3c(Cl)cccc3cc2[C@@H](Nc2ncnc3cccnc23)C(F)(F)F)c1 , report Euclidean distance.
A) 1.4

Q) For the compound CC1=Nc2ccc(Cl)cc2S(=O)(=O)N1 [Diazoxide] , report Euclidean distance.
A) 1.19

Q) For the compound O=C(CSc1nc2c(c(=O)n1-c1ccccc1)SCC2)Nc1ccc(-c2ccccc2)cn1 , report Euclidean distance.
A) 1.11

Q) For the compound COC(=O)/C=C/C(=O)OCCN1C(=O)CCC1=O , report Euclidean distance.
A) 1.17

Q) For the compound CCn1cc(C(=O)O)c(=O)c2cnc(N3CCCC3)nc21 , report Euclidean distance.
A) 0.647

Q) For the compound CC(C)c1nc(CN(C)C(=O)N[C@@H](CCN2CCOCC2)C(=O)N[C@H](CC[C@H](Cc2ccccc2)NC(=O)OCc2cncs2)Cc2ccccc2)cs1 [Cobicistat (GS-9350)] , report Euclidean distance.
A) 1.67

Q) For the compound Cn1cc(/C=C/C(=O)c2cccc(F)c2)cc1/C=C/C(=O)NO , report Euclidean distance.
A) 0.756

Q) For the compound O=c1[nH]c(=O)n([C@H]2C[C@H](O)[C@@H](CO)O2)cc1I , report Euclidean distance.
A) 2.3

Q) For the compound O=C1Nc2ccccc2/C1=C1/Nc2ccccc2C1=O , report Euclidean distance.
A) 0.786

Q) For the compound OCc1cc(C(O)CNCCCCCCOCCCCc2ccccc2)ccc1O (configuration not stated) [Salmeterol] , report Euclidean distance.
A) 1.51

Q) For the compound Nc1nc(NC2CC2)c2ncn([C@H]3C=C[C@@H](CO)C3)c2n1 [Abacavir sulfate] , report Euclidean distance.
A) 1.39

Q) For the compound Oc1cc(O)cc(/C=C/c2ccc(O)c(O)c2)c1 , report Euclidean distance.
A) 0.992

Q) For the compound CC(C)CCN1c2nc(Nc3cc(F)c(O)c(F)c3)ncc2N(C)C(=O)C1C (configuration not stated) , report Euclidean distance.
A) 2.16

Q) For the compound Cc1cc(C)c(CNC(=O)c2cc(-c3ccc(CN4CCOCC4)cc3)cc3c2cnn3C2CCCC2)c(=O)[nH]1 , report Euclidean distance.
A) 0.808

Q) For the compound CCC1(C)CC(=O)NC1=O (configuration not stated) [Ethosuximide] , report Euclidean distance.
A) 1.11

Q) For the compound CC(C)C[C@H](NC(=O)[C@@H](NC(=O)c1cccc(-c2ccccc2)n1)[C@@H](C)O)B(O)O , report Euclidean distance.
A) 4.4

Q) For the compound COc1cc(NC(=O)c2ccccn2)ccc1Cl , report Euclidean distance.
A) 0.845

Q) For the compound C[C@H]1CN(C[C@H](Cc2ccccc2)C(=O)NCC(=O)O)CC[C@@]1(C)c1cccc(O)c1 [Alvimopan dihydrate] , report Euclidean distance.
A) 1.89

Q) For the compound Cc1ccc(-c2ncc(Cl)cc2-c2ccc(S(C)(=O)=O)cc2)cn1 , report Euclidean distance.
A) 0.802

The measurements presented in this section are drawn from the supplement of paper PMC10127200.
